Assay: Human 5-HTP gastrointestinal regional absorption study (plasma 5-HTP)
Type: in vivo
Conditions: both sexes, plasma, po, 200 mg, oral 200 mg, read-out: Maximal average 5-HTP plasma (CMax) levels
MEASURE NAME: Cmax (ng/mL)
Numbers only here, please. The scale is ng/mL.

Looking up N[C@@H](Cc1c[nH]c2ccc(O)cc12)C(=O)O [5-HTP, 5-hydroxytryptophan] , I see its Cmax listed as 370

====

Assay: Water solubility
Type: physicochemical
Conditions: free base
MEASURE NAME: solubility

Reported solubility of N[C@@H](Cc1c[nH]c2ccc(O)cc12)C(=O)O [5-HTP, 5-hydroxytryptophan] : > 10000 µg/mL
